Tested on: Staphylococcus aureus
Experiment Description: Antibacterial activity against susceptible Staphylococcus aureus after 20 hrs by agar dilution method
Type: functional
Give measured MIC for each item. Keep answers brief.
Response body: numeric value in µg/mL, unit text excluded.

Consider "CCC(=O)O[C@@H]1CC(=O)O[C@H](C)C[C@H](O)[C@H](N(C)CCCc2ccnc3ccccc23)/C=C/[C@H](OC(C)=O)[C@H](C)C[C@H](CC=O)[C@H](O[C@@H]2O[C@H](C)[C@@H](O)[C@H](N(C)C)[C@H]2O)[C@H]1OC" . Its measured MIC is 0.39

The compound listed as "CCC(=O)O[C@@H]1CC(=O)O[C@H](C)C[C@H](O)[C@H](N(C)CCCc2cnc3ccccc3c2)/C=C/[C@H](OC(C)=O)[C@H](C)C[C@H](CC=O)[C@H](O[C@@H]2O[C@H](C)[C@@H](O)[C@H](N(C)C)[C@H]2O)[C@H]1OC" has a reported MIC of 1.56

The compound "CCC(=O)O[C@@H]1CC(=O)O[C@H](C)C[C@@H]2OC(=O)N[C@@H]2/C=C/[C@H](OC(C)=O)[C@H](C)C[C@H](CC=O)[C@H](O[C@@H]2O[C@H](C)[C@@H](O[C@H]3C[C@@](C)(O)[C@@H](OC(=O)CC)[C@H](C)O3)[C@H](N(C)C)[C@H]2O)[C@H]1OC" showed MIC equal to 0.39

Recorded result, "CCC(=O)O[C@@H]1CC(=O)O[C@H](C)C[C@H](O)[C@H](N(C)CCCc2cccc3ccccc23)/C=C/[C@H](OC(C)=O)[C@H](C)C[C@H](CC=O)[C@H](O[C@@H]2O[C@H](C)[C@@H](O)[C@H](N(C)C)[C@H]2O)[C@H]1OC" , MIC: 0.78

Measured MIC of "CCC(=O)O[C@@H]1CC(=O)O[C@H](C)C[C@H](O)[C@H](N(C)CCCc2ccccc2)/C=C/[C@H](OC(C)=O)[C@H](C)C[C@H](CC=O)[C@H](O[C@@H]2O[C@H](C)[C@@H](O)[C@H](N(C)C)[C@H]2O)[C@H]1OC" : 0.78

The recorded MIC for "CCC(=O)O[C@@H]1CC(=O)O[C@H](C)C[C@H](O)[C@H](N(C)CCCc2cnc3ccccc3c2)/C=C/[C@H](OC(C)=O)[C@H](C)C[C@H](CC=O)[C@H](O[C@@H]2O[C@H](C)[C@@H](O[C@H]3C[C@@](C)(O)[C@@H](OC(=O)CC)[C@H](C)O3)[C@H](N(C)C)[C@H]2O)[C@H]1OC" is 0.39

Summary for this compound, "CCC(=O)O[C@@H]1CC(=O)O[C@H](C)C[C@@H]2OC(=O)N(CCc3ccccc3)[C@@H]2/C=C/[C@H](OC(C)=O)[C@H](C)C[C@H](CC=O)[C@H](O[C@@H]2O[C@H](C)[C@@H](O[C@H]3C[C@@](C)(O)[C@@H](OC(=O)CC)[C@H](C)O3)[C@H](N(C)C)[C@H]2O)[C@H]1OC" : MIC is 0.39

The values you see were collected from ChEMBL document CHEMBL1157144.
